subjectOfTest: natural β-amyloid peptide β-AP1-40 (human)
Sequence (peptide, as listed by the source): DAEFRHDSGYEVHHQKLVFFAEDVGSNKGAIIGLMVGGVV
experiment: cell-based or functional assay
Numbered stars: 1 amine (or outer) side, 2 acyl side, 3 side chain; on linkers, the order of the positions; unused ones are H or OH. Square brackets hold non-standard residues; d marks the D form. * marks the point of attachment. Cholyl = C[C@H](CCC(=O)*)[C@H]1CC[C@H]2[C@@H]3[C@H](O)C[C@@H]4C[C@H](O)CC[C@]4(C)[C@H]3C[C@H](O)[C@]12C; Adp = aminoethyldibenzofuranylpropanoic acid, O=C(CCc1cccc2c1oc1c(CCN[*:1])cccc12)[*:2]; βAla = NCCC(=O)O
testReadout: % Iext'n; seeded extension assay; 25 mole % (%)
The reply should contain only the number, in %.

binder | experimentalResult
H-DDIIL[Adp]VFF-OH (SMILES CC[C@H](C)[C@H](NC(=O)[C@H](CC(=O)O)NC(=O)[C@@H](N)CC(=O)O)C(=O)N[C@H](C(=O)N[C@@H](CC(C)C)C(=O)NCCc1cccc2c1oc1c(CCC(=O)N[C@H](C(=O)N[C@@H](Cc3ccccc3)C(=O)N[C@@H](Cc3ccccc3)C(=O)O)C(C)C)cccc12)[C@@H](C)CC) [h-DDIIL-(Adp)-VFF-oh] | 0
Cholyl-KLVFF[βAla]-OH (SMILES CC(C)C[C@H](NC(=O)[C@H](CCCCN)NC(=O)CC[C@@H](C)[C@H]1CC[C@H]2[C@@H]3[C@H](O)C[C@@H]4C[C@H](O)CC[C@]4(C)[C@H]3C[C@H](O)[C@]12C)C(=O)N[C@H](C(=O)N[C@@H](Cc1ccccc1)C(=O)N[C@@H](Cc1ccccc1)C(=O)NCCC(=O)O)C(C)C) [CA-KLVFF(βA)-oh] | 80

Now for another entry.
Given item Cholyl-QKLVFF-OH (SMILES CC(C)C[C@H](NC(=O)[C@H](CCCCN)NC(=O)[C@H](CCC(N)=O)NC(=O)CC[C@@H](C)[C@H]1CC[C@H]2[C@@H]3[C@H](O)C[C@@H]4C[C@H](O)CC[C@]4(C)[C@H]3C[C@H](O)[C@]12C)C(=O)N[C@H](C(=O)N[C@@H](Cc1ccccc1)C(=O)N[C@@H](Cc1ccccc1)C(=O)O)C(C)C) [cholyl-Aβ15-20] , the value recorded as its % Iext'n; seeded extension assay; 25 mole % is 56
